pIC50: −log10 of the molar value.
Endpoint: pIC50. System: Dihydrofolate reductase (Lactobacillus casei). Items follow.
Sequence (P00381 whole entry): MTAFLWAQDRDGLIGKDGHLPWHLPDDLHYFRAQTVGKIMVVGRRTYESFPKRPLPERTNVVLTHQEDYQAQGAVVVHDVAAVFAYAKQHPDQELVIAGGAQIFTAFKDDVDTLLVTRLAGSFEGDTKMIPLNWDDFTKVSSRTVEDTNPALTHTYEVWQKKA

Inquiry: Value lookup for pIC50; key = C#CCN(Cc1cnc2nc(N)nc(O)c2n1)c1ccc(C(=O)O)cc1
Reply text: < 4.00

Inquiry: Also, C#CCN(CC1CNc2nc(N)nc(O)c2N1)c1ccc(C(=O)NC(CCC(=O)O)C(=O)O)cc1 (centres undefined) please.
Reply text: < 3.85

Inquiry: Also, C#CCN(Cc1cnc2nc(N)nc(O)c2n1)c1ccc(C(=O)NC(CCC(=O)O)C(=O)O)cc1 (centres undefined) please.
Reply text: < 4.00

Inquiry: Note, next up: C#CCN(CC1=Nc2c(O)nc(N)nc2NC1)c1ccc(C(=O)NC(CCC(=O)O)C(=O)O)cc1 (centres undefined)
Reply text: < 4.30

The measurements presented in this section are drawn from ChEMBL document CHEMBL1123313.
